# Tested on: T-47D Tam2
# ASSAY NAME: viability inhibition at highest dose (% inhibition); higher = more growth inhibition
# CONDITION SUMMARY: 4-OH-tamoxifen in medium 1 µM; 72 h
Here the recorded viability inhibition at highest dose is given for each entry.
Lab note: write the figure by itself, no unit.

Worked cases, answers included:
                                   molecule  value_reported
0  O=C(CCCCCCC(=O)Nc1ccccc1)NO [Vorinostat] (drug 10000 nM)            41.9
1  CCN(CC)CCCC(C)Nc1ccnc2cc(Cl)ccc12 (stereo not drawn) [Chloroquine] (drug 990000 nM)           -12.2
2  CS(=O)(=O)N1CCN(Cc2cc3nc(-c4cccc5[nH]ncc45)nc(N4CCOCC4)c3s2)CC1 [Pictilisib (GDC-0941)] (drug 10000 nM)            67.4
3  NC(=O)c1cccc2cn(-c3ccc([C@@H]4CCCNC4)cc3)nc12 [MK-4827] (drug 10000 nM)            14.2
4  Cn1cc(C2=C(c3cn(C4CCN(Cc5ccccn5)CC4)c4ccccc34)C(=O)NC2=O)c2ccccc21 [Enzastaurin] (drug 10000 nM)          -0.917

Data request: Sample Clc1ccc(Nc2nnc(Cc3ccncc3)c3ccccc23)cc1 [Vatalanib] (drug 10000 nM) — what was its viability inhibition at highest dose?
Data returned: 7.23

Data request: Now consider Oc1ncnc2[nH]ncc12 [Allopurinol] (drug 10000 nM) .
Data returned: 4.5

Data request: Record: CS(=O)(=O)CCNCc1ccc(-c2ccc3ncnc(Nc4ccc(OCc5cccc(F)c5)c(Cl)c4)c3c2)o1 [Lapatinib] (drug 1000 nM)
Data returned: 16.8
